This collection of values is drawn from patent US8058306B2.

Experimental details: Plasma kinetics in rat following intravenous and oral administration
Type: in vivo, Sprague Dawley rats
Experimental setup: Table XIV; intravenous 10 mg/kg, male rats, Geometric mean
Readout name: t1/2 (h)
Answers are plain numbers, in h.

Field t1/2 (entry N=C(N)NN=CC=Cc1cccn1-c1ccccc1Br [Compound 3, acetate] ) reads 3.14

----------
Experimental details: Plasma kinetics in rat following intravenous and oral administration
Assay type: in vivo, Sprague Dawley rats
Experimental setup: male, Sprague Dawley, rat, plasma, po, 10 mg/kg, oral 10 mg/kg, male rats, individual animals; read-out: t1/2 (converted)
Readout name: half-life (h)
One number for each entry, in h.

Example entries and their recorded answers appear below.
Molecule	half-life, h
N=C(N)NN=CC=Cc1cccn1-c1ccc(Cl)cc1 [Compound 1, acetate]	4.61
N=C(N)NN=CC=Cc1cccn1-c1ccccc1[N+](=O)[O-] [Compound 2, acetate]	2.25

Next molecule, half-life to be filled in.
Field half-life (entry N=C(N)NN=CC=Cc1cccn1-c1ccccc1Br [Compound 3, acetate] ) reads 3.19

----------
Experimental details: Plasma kinetics in rat following intravenous and oral administration
Format: in vivo, Sprague Dawley rats
Experimental setup: male, Sprague Dawley, rat, plasma, iv, 10 mg/kg, single intravenous 10 mg/kg, male rats, 8 h, individual animals; LLOQ 2.50; read-out: Sample Concentration in plasma
Readout name: concentration at 8 h (ng/mL)
Answers are plain numbers, in ng/mL.

Field concentration at 8 h (entry N=C(N)NN=CC=Cc1cccn1-c1ccccc1Br [Compound 3, acetate] ) reads 62.3

----------
Experimental details: Plasma kinetics in rat following intravenous and oral administration
Type: in vivo, Sprague Dawley rats
Experimental setup: male, Sprague Dawley, rat, plasma, po, 10 mg/kg, single oral 10 mg/kg, male rats, 0.05 h, mean; read-out: Mean Concentration in plasma
Readout name: concentration at 0.05 h (ng/mL)
One number for each entry, in ng/mL.

Field concentration at 0.05 h (entry N=C(N)NN=CC=Cc1cccn1-c1ccccc1[N+](=O)[O-] [Compound 2, acetate] ) reads 4.68

----------
For each record, write down the corresponding pKi.
System tested: murine MC1 receptor (Mus musculus)
Construct: murine B16-F1 melanoma cells expressing MC1, but not other MC receptors, were used; endogenous in cells
Sequence (Q01727 whole entry): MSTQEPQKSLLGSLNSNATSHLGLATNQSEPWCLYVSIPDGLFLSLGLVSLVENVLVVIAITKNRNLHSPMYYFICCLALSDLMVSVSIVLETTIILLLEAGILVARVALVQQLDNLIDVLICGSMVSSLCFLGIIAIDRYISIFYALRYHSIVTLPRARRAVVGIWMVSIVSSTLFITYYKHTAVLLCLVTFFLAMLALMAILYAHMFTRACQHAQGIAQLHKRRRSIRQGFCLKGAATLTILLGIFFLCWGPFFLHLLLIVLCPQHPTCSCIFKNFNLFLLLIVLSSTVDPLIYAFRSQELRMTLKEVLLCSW
Experimental details: [125I]-NDP-MSH radio-ligand binding, MC1 receptor (B16-F1 melanoma cells)
Experimental setup: 90 min/22° C.
Give bare numbers, as −log10 of the molar value.

Example entries and their recorded answers appear below.
Compound	System tested	pKi
N=C(N)NN=CC=Cc1cccn1-c1ccc(Cl)cc1 [Compound 1, acetate]	murine MC1 receptor (Mus musculus)	7.06
N=C(N)NN=CC=Cc1cccn1-c1ccccc1Br [Compound 3, acetate]	murine MC1 receptor (Mus musculus)	8.59

Item N=C(N)NN=CC=Cc1cccn1-c1ccccc1[N+](=O)[O-] [Compound 2, acetate] ; assay system murine MC1 receptor (Mus musculus); pKi reported as 6.44

----------
Experimental details: Plasma kinetics in rat following intravenous and oral administration
Assay type: in vivo, Sprague Dawley rats
Experimental setup: male, Sprague Dawley, rat, plasma, po, 10 mg/kg, oral 10 mg/kg, male rats, Median; read-out: tmax
Readout name: Tmax (h)
Answers are plain numbers, in h.

Example entries and their recorded answers appear below.
Compound	Tmax [h]
N=C(N)NN=CC=Cc1cccn1-c1ccccc1[N+](=O)[O-] [Compound 2, acetate]	2.5
N=C(N)NN=CC=Cc1cccn1-c1ccccc1Br [Compound 3, acetate]	4.02

Next compound, Tmax to be filled in.
Field Tmax (entry N=C(N)NN=CC=Cc1cccn1-c1ccc(Cl)cc1 [Compound 1, acetate] ) reads 7.97
